assay: Metabolic stability in human liver microsomes assessed as unbound intrinsic clearance at 1 uM measured upto 30 mins by LC-MS/MS analysis; type: ADME, Microsome; settings: 0.5 h
Reported Metric: CL free

Reference set, count: 2
- COc1cc(F)c(O[C@H]2CC[C@@](C)(c3n[nH]c(=O)o3)CC2)cc1C(=O)N[C@@H]1[C@H]2CC[C@H](C2)[C@@H]1C(=O)NCC1(C)CCC1: 2.8 10^3uL/min/mg
- COc1cc(C(F)F)c(O[C@H]2CC[C@@](C)(C(=O)O)CC2)cc1C(=O)N[C@@H]1[C@H]2CC[C@H](C2)[C@@H]1C(=O)NCC1(C)CCC1: 39 µL/min/mg

Using the record for COc1cc(F)c(O[C@H]2CC[C@](C(=O)O)(C(F)(F)F)CC2)cc1C(=O)N[C@@H]1[C@H]2CC[C@H](C2)[C@@H]1C(=O)NCC1(C)CCC1 , report its CL free.
< 5.5 µL/min/mg

---

assay: Metabolic stability in human liver microsomes assessed as intrinsic clearance at 1 uM measured upto 30 mins by LC-MS/MS analysis; format: ADME, Microsome; conditions: read-out: CLH
Reported Metric: log10 of microsomal CLint at 1 µM (log10 of the value in µL/min/mg)
// do not treat as linear: log10 of microsomal CLint at 1 µM, unit µL/min/mg

- COc1cc(F)c(O[C@H]2CC[C@@](CC#N)(C(=O)O)CC2)cc1C(=O)N[C@@H]1[C@H]2CC[C@H](C2)[C@@H]1C(=O)NCC1(C)CCC1: 1.11
- COc1cc(C#N)c(O[C@H]2CC[C@@](C)(C(=O)O)CC2)cc1C(=O)N[C@@H]1[C@H]2CC[C@H](C2)[C@@H]1C(=O)NC12CC(F)(C1)C2: 0.60
- COc1cc(Cl)c(O[C@H]2CC[C@@](C)(C(=O)O)CC2)cc1C(=O)N[C@@H]1[C@H]2CC[C@H](C2)[C@@H]1C(=O)NCC1(C)CCC1: 1.56

Please report log10 of microsomal CLint at 1 µM for every entry that follows.
1. COc1c(C#N)cc(O[C@H]2CC[C@@](C)(C(=O)O)CC2)cc1C(=O)N[C@@H]1[C@H]2CC[C@H](C2)[C@@H]1C(=O)NCC1(C)CCC1
2. COc1cc(F)c(O[C@H]2CC[C@@](C)(C(=O)O)CC2)cc1C(=O)N[C@@H]1[C@H]2CC[C@H](C2)[C@@H]1C(=O)N[C@H](C)C(C)(C)C

[1.70, 1.52]

---

test: Metabolic stability in human liver microsomes assessed as intrinsic clearance at 1 uM measured upto 30 mins by LC-MS/MS analysis; type: ADME, Microsome; settings: read-out: CLH
Reported Metric: microsomal CLint at 1 µM

Reference set, count: 3
• COc1cc(C#N)c(O[C@H]2CC[C@@](C)(C(=O)O)CC2)cc1C(=O)N[C@@H]1[C@H]2CC[C@H](C2)[C@@H]1C(=O)NCC(C)(C)C = < 3 µL/min/mg
• COc1cc(F)c(O[C@H]2CC[C@@](C)(c3n[nH]c(=O)o3)CC2)cc1C(=O)N[C@@H]1[C@H]2CC[C@H](C2)[C@@H]1C(=O)NCC1(C)CCC1 = > 300 µL/min/mg
• COc1cc(F)c(O[C@H]2CC[C@](C(=O)O)(C(F)(F)F)CC2)cc1C(=O)N[C@@H]1[C@H]2CC[C@H](C2)[C@@H]1C(=O)NCC1(C)CCC1 = < 3 µL/min/mg

Next compound, microsomal CLint at 1 µM to be filled in.
Using the record for COc1cc(F)c(O[C@H]2CC[C@@](CO)(C(=O)O)CC2)cc1C(=O)N[C@@H]1[C@H]2CC[C@H](C2)[C@@H]1C(=O)NCC1(C)CCC1 , report its microsomal CLint at 1 µM.
< 5.1 µL/min/mg
